- SUBJECT_OF_TEST: human GPR17 short isoform (Homo sapiens)
- Sequence (Q13304 29-367): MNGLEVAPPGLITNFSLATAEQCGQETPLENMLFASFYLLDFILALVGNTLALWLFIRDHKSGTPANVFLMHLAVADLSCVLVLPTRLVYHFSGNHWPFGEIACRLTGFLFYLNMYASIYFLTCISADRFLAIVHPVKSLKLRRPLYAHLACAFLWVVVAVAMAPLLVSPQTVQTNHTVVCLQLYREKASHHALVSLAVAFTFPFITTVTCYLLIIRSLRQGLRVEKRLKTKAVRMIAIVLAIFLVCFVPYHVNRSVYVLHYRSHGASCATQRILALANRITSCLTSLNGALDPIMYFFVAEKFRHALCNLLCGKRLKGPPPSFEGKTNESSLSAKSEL
- EXPERIMENT_DESCRIPTION: GPR17 cAMP assay (hGPR17 cAMP)
- Assay type: cell-based
- RUN_CONDITIONS: CHO-K1 cells stably expressing human GPR17 short isoform; antagonist mode with EC80 of MDL29,951, forskolin 15 μM, TR-FRET cAMP
- Text: GPR17 cAMP Assay Protocol: […] Changes in intracellular cyclic adenosine monophosphate (cAMP) levels were quantified using the Nano-TRF Detection Assay kit (Roche Diagnostics, Cat. No. 05214386001). This assay allows for direct cAMP quantification in a homogeneous solution. cAMP is detected based on time-resolved fluorescence energy transfer (TR-FRET) and competitive binding of ruthenylated cAMP and endogenous cAMP to an anti-cAMP monoclonal antibody labeled with AlexaFluor-700. […]
MEASURED_QUANTITY: IC50 (nM)

stdin: // Input: COc1nc(NS(=O)(=O)c2c[nH]c(-c3ncccc3F)c2)ncc1CC(F)F [Example 24] . Output its IC50 only.
stdout: 331

[a] COc1nc(NS(=O)(=O)c2c[nH]c(-c3nccs3)c2)ncc1CC(F)F [Example 34]
[b] COc1nc(NS(=O)(=O)c2c[nH]c(-c3ncccc3F)c2)nc(OC)c1OCCF [Example 7]
[c] COc1nc(NS(=O)(=O)c2c[nH]c(-c3ccccc3F)c2)nc(OC)c1OCCF [Example 38]
stdin: Provide the items ranked by increasing IC50. Quick reminder: the answer is the labels in the order asked.
stdout: b, c, a
